PROTOCOL_NOTES: Solubility of mefloquine hydrochloride in buffer solutions and water for injection
Format: physicochemical
CONDITIONS_USED: aqueous buffer, thermodynamic from solid; citrate buffer, pH 2.7, 24 °C
Counter-ions that a name gives are not always drawn.
REPORTED_PROPERTY: solubility at 24 h (µg/mL)
Record the value in µg/mL, omitting the unit from your answer.

// sample OC(c1cc(C(F)(F)F)nc2c(C(F)(F)F)cccc12)C1CCCCN1 (stereo not shown) [mefloquine, mefloquine hydrochloride] , its solubility at 24 h was 640

====

PROTOCOL_NOTES: Solubility of mefloquine hydrochloride in buffer solutions and water for injection
Type: physicochemical
CONDITIONS_USED: aqueous buffer, thermodynamic from solid; phosphate buffer, pH 2.6, 24 °C
Where a name gives a salt, the structure may show the parent alone.
REPORTED_PROPERTY: solubility at 24 h (µg/mL)
Record the value in µg/mL, omitting the unit from your answer.

// sample OC(c1cc(C(F)(F)F)nc2c(C(F)(F)F)cccc12)C1CCCCN1 (stereo not shown) [mefloquine, mefloquine hydrochloride] , its solubility at 24 h was 4810

====

PROTOCOL_NOTES: Solubility of mefloquine hydrochloride in buffer solutions and water for injection
Format: physicochemical
CONDITIONS_USED: aqueous buffer, thermodynamic from solid; phosphate buffer, pH 6.5, 24 °C
Structures can show the parent of a compound that is named as a salt.
REPORTED_PROPERTY: solubility at 24 h (µg/mL)
Record the value in µg/mL, omitting the unit from your answer.

// sample OC(c1cc(C(F)(F)F)nc2c(C(F)(F)F)cccc12)C1CCCCN1 (stereo not shown) [mefloquine, mefloquine hydrochloride] , its solubility at 24 h was 780
